# Protocol Details: Antitumor activity against human 786-O cells after 48 hrs by SRB assay
# Assay type: functional, cell-based
# Condition Label: 786-0, 48 h
Assignment: determine reported IC50 for the given molecules.
Answers are plain numbers, in µM.

COc1cc(/C=C/C(/C=C/c2ccc(O)c(OC)c2)=C(C#N)C#N)ccc1O
7.14
COc1cc(/C=C/C(=O)/C=C/c2ccc(OC(C)=O)c(OC)c2)ccc1OC(C)=O
0.66
COc1ccc(/C=C/C(=O)/C=C/c2ccc(OC)c(OC)c2)cc1OC
3.36
COc1cc(/C=C/C(=O)/C=C/c2ccc(OCC=C(C)C)c(OC)c2)ccc1OCC=C(C)C
7.87

Q: Report IC50 for COc1cc(/C=C/C(=O)/C=C/c2ccc(O)c(OC)c2)ccc1O please.
Ans: 1.99

* * *

# Protocol Details: Toxicity in Swiss albino mouse for 14 days
# Format: organism-based
# Condition Label: in vivo
Assignment: determine reported LD50 at 336 h for the given molecules.
One number for each entry, in mg/kg.

Parameter requested: LD50 at 336 h. Apply to each item below.
1. COc1cc(/C=C/C(=O)/C=C/c2ccc(OC(C)=O)c(OC)c2)ccc1OC(C)=O
2. COc1cc(/C=C/C(=O)/C=C/c2ccc(O)c(OC)c2)ccc1O

Ans:
1. 3680
2. 8540
